# Tested on: liver cancer HepG2
# test: Growth inhibition of tumor cells HepG2
# Assay type: cell-based
# condition.info: Homo sapiens
metric: IC50 (nM)
Numbers only; they are read as nM.

Per the records, this molecule ( "COc1cc(N2CCC(N3CCN(C)CC3)CC2)ccc1Nc1nc(Nc2ccccc2S(=O)(=O)C(C)C)c2[nH]ccc2n1" ) has IC50 equal to 3440

====

# target.desc: EML4-ALK-BaF3 (Homo sapiens)
# Construct: expressed in transfected cells; host or cells: Ba/F3 cells; the other entry of the earlier key: EML4 (Q9HC35, Echinoderm microtubule-associated protein-like 4)
# Sequence (Q9UM73 1058-1620 limits assumed): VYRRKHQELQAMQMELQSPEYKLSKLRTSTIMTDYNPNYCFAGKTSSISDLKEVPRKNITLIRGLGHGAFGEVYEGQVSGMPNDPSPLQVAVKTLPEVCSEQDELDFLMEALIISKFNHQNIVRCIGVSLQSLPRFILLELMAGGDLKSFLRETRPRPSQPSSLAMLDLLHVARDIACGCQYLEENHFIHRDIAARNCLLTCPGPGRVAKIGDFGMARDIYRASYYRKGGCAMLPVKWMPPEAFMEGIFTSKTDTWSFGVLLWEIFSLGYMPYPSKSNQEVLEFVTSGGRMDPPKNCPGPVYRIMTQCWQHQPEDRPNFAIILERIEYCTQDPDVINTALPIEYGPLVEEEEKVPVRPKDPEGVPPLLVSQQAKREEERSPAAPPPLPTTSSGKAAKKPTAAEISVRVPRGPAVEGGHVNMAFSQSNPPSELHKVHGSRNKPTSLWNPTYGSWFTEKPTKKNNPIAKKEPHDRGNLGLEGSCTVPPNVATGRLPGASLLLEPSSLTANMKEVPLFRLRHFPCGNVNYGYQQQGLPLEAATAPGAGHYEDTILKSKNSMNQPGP
# test: Growth inhibition of EML4-ALK transformed BaF3 cells (MTS)
# Type: cell-based
# condition.info: EML4-ALK-BaF3 cells, 48 hours, MTS; Table 12
Each record here notes measured IC50.
Numbers only; they are read as nM.

Some molecules with recorded IC50:
| smiles.notation | target.desc | endpoint.result |
| --- | --- | --- |
| CC(C)S(=O)(=O)c1ccccc1CNc1nc(Nc2ccc(N3CCN(C)CC3)cc2)nc2ccn(C)c12 | EML4-ALK-BaF3 (Homo sapiens) | 1140 |
| Cn1ccc2nc(Nc3ccc(N4CCC(O)CC4)cc3)nc(Nc3ccccc3S(C)(=O)=O)c21 | EML4-ALK-BaF3 (Homo sapiens) | 8290 |

Per the records, this molecule ( "CSc1ccccc1CNc1nc(Nc2ccc(S(N)(=O)=O)cc2)nc2ccn(C)c12" ) has IC50 equal to 3200

Per the records, this molecule ( "CSc1ccccc1Nc1nc(Nc2ccc(N3CCC(O)CC3)cc2)nc2ccn(C)c12" ) has IC50 equal to 321

====

# target.desc: NPM-ALK-BaF3 (Homo sapiens)
# Construct: expressed in transfected cells; host or cells: Ba/F3 cells; the other entry of the earlier key: NPM1 (P06748, Nucleophosmin)
# Sequence (Q9UM73 with tags, fused parts or gaps): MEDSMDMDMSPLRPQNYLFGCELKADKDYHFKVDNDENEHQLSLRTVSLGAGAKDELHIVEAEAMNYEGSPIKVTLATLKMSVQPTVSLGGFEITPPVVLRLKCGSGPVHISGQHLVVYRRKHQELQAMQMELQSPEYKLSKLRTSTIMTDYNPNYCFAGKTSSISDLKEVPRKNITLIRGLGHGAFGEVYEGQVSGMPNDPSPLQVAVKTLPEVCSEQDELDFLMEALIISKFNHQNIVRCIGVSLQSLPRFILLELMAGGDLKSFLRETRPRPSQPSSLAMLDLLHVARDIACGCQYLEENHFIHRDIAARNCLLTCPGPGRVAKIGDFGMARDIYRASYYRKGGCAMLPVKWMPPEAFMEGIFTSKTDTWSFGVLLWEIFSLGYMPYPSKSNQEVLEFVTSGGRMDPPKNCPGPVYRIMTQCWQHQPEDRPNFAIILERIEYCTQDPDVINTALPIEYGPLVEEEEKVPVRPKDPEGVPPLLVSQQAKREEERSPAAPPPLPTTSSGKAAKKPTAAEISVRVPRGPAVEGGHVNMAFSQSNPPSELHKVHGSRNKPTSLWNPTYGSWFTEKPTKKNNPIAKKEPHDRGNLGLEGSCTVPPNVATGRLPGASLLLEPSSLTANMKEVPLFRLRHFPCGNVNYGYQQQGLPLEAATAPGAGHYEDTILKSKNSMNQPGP
# test: Growth inhibition of NPM-ALK transformed BaF3 cells (MTS)
# Assay type: cell-based
# condition.info: 48 hours, Table 11
metric: IC50

Some compounds with recorded IC50:
| compound | IC50 |
| --- | --- |
| CNC(=O)c1ccccc1Nc1nc(Nc2ccc(S(N)(=O)=O)cc2)nc2cc[nH]c12 | > 10000 nM |
| CC(C)Sc1ccccc1Nc1nc(Nc2ccc(N3CCC(O)CC3)cc2)nc2cc[nH]c12 | 1770 nM |
| CNc1nc(Nc2ccc(C(=O)N3CCN(C)CC3)cc2OC)nc2cc[nH]c12 | > 10000 nM |
| COc1cc(N2CCC(N3CCN(C)CC3)CC2)ccc1Nc1nc(Nc2ccccc2S(C)(=O)=O)c2[nH]ccc2n1 | ~4910 nM |

Per the records, this compound ( "COC(=O)c1cccc(Nc2nc(Nc3ccc(N4CCC(O)CC4)cc3)nc3cc[nH]c23)c1" ) has IC50 equal to 4910 nM

Per the records, this compound ( "Cc1cc(Nc2nc(Nc3ccccc3S(=O)(=O)C(C)C)c3[nH]ccc3n2)c(OC(C)C)cc1C1CCN(C)CC1" ) has IC50 equal to 1020 nM

Per the records, this compound ( "COc1cc(N2CCN(C)CC2)ccc1Nc1nc(Nc2ccccc2SC(C)C)c2[nH]ccc2n1" ) has IC50 equal to 1450 nM

Per the records, this compound ( "COC(=O)c1cccc(Nc2nc(Nc3ccc(N4CCC(N5CCN(C)CC5)CC4)cc3OC)nc3cc[nH]c23)c1" ) has IC50 equal to ~2600 nM

Per the records, this compound ( "COC(=O)c1ccccc1Sc1nc(Nc2ccc(S(N)(=O)=O)cc2)nc2cc[nH]c12" ) has IC50 equal to > 10000 nM

Per the records, this compound ( "CC(C)S(=O)(=O)c1ccccc1Nc1nc(Nc2cnn(C3CCN(C)CC3)c2)nc2cc[nH]c12" ) has IC50 equal to > 10000 nM

Per the records, this compound ( "CC(C)S(=O)(=O)c1ccccc1CNc1nc(Nc2ccc(S(N)(=O)=O)cc2)nc2cc[nH]c12" ) has IC50 equal to > 10000 nM

Reference for the values: patent US10508118B2
